Test system: NOMO1
Assay: cell viability relative to DMSO control; higher = less cytotoxic
Conditions: HPLM + 10% dialyzed FBS; 48 h; 15.4 µM
OUTCOME MEASURE: cell viability (%)
One number for each entry, in %.

Use these answered entries as a reference point.
Entry `OC[C@H]1O[C@H]([C@@H](F)[C@@H]1O)N2\C=C/C(=O)NC2=O` , cell viability reported as 97.9

Entry `C[N+]1(C)[C@@H]2C[C@@H](OC(=O)[C@H](CO)c3ccccc3)C[C@H]1[C@@H]1O[C@@H]12.[Br-]` , cell viability reported as 89.2

Entry `CN(C)C(=O)c1ccc([S+](=O)([O-])c2ccc(NC(=O)[C@@](C)(O)C(F)(F)F)c(Cl)c2)cc1` , cell viability reported as 33

Entry `Cc1cccc(C)c1OCC(=O)N[C@@H](Cc1ccccc1)[C@@H](O)C[C@H](Cc1ccccc1)NC(=O)[C@H](C(C)C)N1CCCNC1=O` , cell viability reported as 81

Entry `CCN(CC)C(=S)SSC(=S)N(CC)CC` , cell viability reported as 46.8

Dear colleague, could you send me cell viability for each of the items below? Thanks.
1. COc1cc(Nc2ncc(F)c(Nc3ccc4c(n3)NC(=O)C(C)(C)O4)n2)cc(OC)c1OC
2. CC(=O)CC(C1=CC=CC=C1)C/2=C(O)/C3=CC=CC=C3OC2=O (centres undefined)
3. CC(=O)N1CCN(c2ccc(OC[C@H]3CO[C@](Cn4ccnc4)(c4ccc(Cl)cc4Cl)O3)cc2)CC1

// result
11.4
143
96.3

Entry `O=C(O)c1ccc(-n2nc(-c3ccccc3O)nc2-c2ccccc2O)cc1` , cell viability reported as 74.7
